# tested system: human recombinant glucocorticoids receptor (GR) (Homo sapiens)
# Sequence (P04150 whole entry): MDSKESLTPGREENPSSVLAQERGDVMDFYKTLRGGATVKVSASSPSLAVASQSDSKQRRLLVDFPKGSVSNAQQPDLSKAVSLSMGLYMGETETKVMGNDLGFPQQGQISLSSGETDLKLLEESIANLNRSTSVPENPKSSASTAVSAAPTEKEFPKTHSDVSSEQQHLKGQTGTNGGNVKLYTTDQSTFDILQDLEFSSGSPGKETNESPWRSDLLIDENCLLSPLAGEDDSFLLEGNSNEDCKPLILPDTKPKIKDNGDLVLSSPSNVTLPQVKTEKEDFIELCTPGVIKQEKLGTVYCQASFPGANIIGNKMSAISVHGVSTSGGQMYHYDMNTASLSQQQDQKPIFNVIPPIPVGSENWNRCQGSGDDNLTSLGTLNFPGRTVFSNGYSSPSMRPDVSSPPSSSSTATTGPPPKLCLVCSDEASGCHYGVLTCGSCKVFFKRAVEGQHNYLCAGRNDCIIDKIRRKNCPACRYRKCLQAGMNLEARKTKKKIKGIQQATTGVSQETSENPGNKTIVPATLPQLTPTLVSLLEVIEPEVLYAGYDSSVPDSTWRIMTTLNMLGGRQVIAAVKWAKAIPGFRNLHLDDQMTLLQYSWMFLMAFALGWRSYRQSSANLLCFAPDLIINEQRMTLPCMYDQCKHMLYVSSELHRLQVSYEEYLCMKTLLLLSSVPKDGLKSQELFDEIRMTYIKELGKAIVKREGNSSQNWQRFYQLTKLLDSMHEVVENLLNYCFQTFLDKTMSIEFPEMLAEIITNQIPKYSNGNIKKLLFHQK
# assay overview: Radioactive ligand binding test, GR cytosol, [3H]-Dex
pKi: −log10 of the molar value.

molecule	tested system	pKi
C=CCC1(C)C(=O)C(C)(C)Nc2c1cc(-c1cccc3cc[nH]c13)c1c2OCO1 (stereo not shown)	human recombinant glucocorticoids receptor (GR) (Homo sapiens)	7.10

###

# tested system: Glucocorticoid Receptor (GR), CHO-GRE-Luc #35 cells (Cricetulus griseus, UniProt A0A9J7F8I2)
# Sequence (A0A9J7F8I2 1-774): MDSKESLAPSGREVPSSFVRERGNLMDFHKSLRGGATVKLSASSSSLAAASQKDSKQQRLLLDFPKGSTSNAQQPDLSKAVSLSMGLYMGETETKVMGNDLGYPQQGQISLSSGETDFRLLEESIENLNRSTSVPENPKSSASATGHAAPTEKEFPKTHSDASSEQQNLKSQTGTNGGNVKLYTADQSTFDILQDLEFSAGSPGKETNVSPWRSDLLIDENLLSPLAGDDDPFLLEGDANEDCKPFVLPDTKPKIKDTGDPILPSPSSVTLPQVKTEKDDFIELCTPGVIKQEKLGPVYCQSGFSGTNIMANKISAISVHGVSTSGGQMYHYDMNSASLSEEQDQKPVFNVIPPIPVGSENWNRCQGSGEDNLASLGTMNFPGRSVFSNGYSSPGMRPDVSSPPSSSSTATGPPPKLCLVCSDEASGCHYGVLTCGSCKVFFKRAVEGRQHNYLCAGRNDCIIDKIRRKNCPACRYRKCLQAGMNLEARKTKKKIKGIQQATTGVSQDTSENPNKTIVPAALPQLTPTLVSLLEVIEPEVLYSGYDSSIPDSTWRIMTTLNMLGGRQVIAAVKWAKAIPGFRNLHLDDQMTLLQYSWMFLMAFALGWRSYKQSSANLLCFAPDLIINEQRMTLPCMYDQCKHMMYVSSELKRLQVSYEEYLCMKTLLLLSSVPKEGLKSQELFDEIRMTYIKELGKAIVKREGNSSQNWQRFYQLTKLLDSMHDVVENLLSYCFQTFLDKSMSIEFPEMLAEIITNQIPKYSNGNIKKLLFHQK
# assay overview: Glucocorticoid receptor function test using transgenic-recombinant cell (GRE-luciferase)
# Format: cell-based
# conditions: against GR stimulation with 10 nM dexamethasone, luciferase, about 6 hr; read-out: GR (IC50: nM)
Hi! Just check whether IC50 is below 70 nM. Below gives Yes, equal or above gives No.

compound	class
CC1(C)Nc2c(cc(-c3cccc4nccn34)c3c2OC(F)(F)O3)C(C)(C)C1=O	No
CC1(C)Nc2c(cc(-c3ccnc4ncccc34)c3occc23)C(C)(C)C1=O	Yes
Cc1noc(C)c1-c1cc2c(c3c1C(=O)CC3)NC(C)(C)C(=O)C2(C)C	No
C=CCC1(C)C(=O)C(C)(C)Nc2c1cc(-c1ccc(O)cc1C)c1c2CCC1 (stereo not shown)	Yes
CC1(C)Nc2c(cc(-c3cccc4nccn34)c3c2CCO3)C(C)(C)C1=O	Yes
CC1(C)Nc2c(cc(-c3cccc4nccn34)c3occc23)C(C)(C)C1=O	Yes
Cc1noc(C)c1-c1cc2c(c3c1CCC3)NC(C)(C)C(=O)C2(C)C	Yes
